experiment: Cell viability in absence of light (trypan blue exclusion)
Format: cell-based, human
condition_notes: human; 5 μM; dark; medium 1.5 hours; counted 2.5 hours after
parameter: viability at 1.5 h, 5 µM
Please make sure the unit comes right after the number.

Can you look up the measured viability at 1.5 h, 5 µM of CCCCCCNc1ccc2c3c(cccc13)C(=O)N(CCCCCC)C2=O [Compound 1b, 4-(hexyl)amino-N-hexyl-1,8-naphthalimide] for me? 96.7%

* * *

experiment: Cell viability in absence of light (trypan blue exclusion)
Assay type: cell-based, human
condition_notes: 5 μM; dark; 100% human plasma 4 hours; 1 hour after
parameter: viability at 4 h, 5 µM (%)
Dear colleague, please return just the value in %, with no unit written.

Can you share its viability at 4 h, 5 µM? I mean this compound: CCCCCCNc1c(Br)cc2c3c(cccc13)C(=O)N(CCCCCC)C2=O [Compound VII] 94.7
